- Tested On: human stromelysin (MMP-3) (Homo sapiens, UniProt P08254)
- Construct: catalytic domains of human stromelysin and of neutrophil collagenase
- Sequence (P08254 100-273 limits assumed): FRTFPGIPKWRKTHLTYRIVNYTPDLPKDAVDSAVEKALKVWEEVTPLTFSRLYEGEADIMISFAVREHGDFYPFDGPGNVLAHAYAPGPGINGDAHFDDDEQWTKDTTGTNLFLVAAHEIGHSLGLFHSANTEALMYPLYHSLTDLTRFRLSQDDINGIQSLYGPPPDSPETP
- Assay Summary: inhibition of the catalytic domain of human stromelysin (MMP-3), fluorogenic substrate
Below is a list of entries, each paired with its recorded IC50 value.
Kindly provide the numeric value in µM only, without the unit symbol.

Example compounds with recorded IC50:
- Compound: "CC(C)(C)OC(=O)Nc1ccc2c(c1)CN(S(=O)(=O)c1ccc(-c3ccc(F)cc3)cc1)[C@@H](C(=O)NO)C2"
  Tested On: "human stromelysin (MMP-3) (Homo sapiens, UniProt P08254)"
  IC50, µM: 0.1
- Compound: "COc1ccc(S(=O)(=O)N2Cc3cc(NC(=O)CCC(=O)O)ccc3C[C@@H]2C(=O)NO)cc1"
  Tested On: "human stromelysin (MMP-3) (Homo sapiens, UniProt P08254)"
  IC50, µM: 0.02
- Compound: "COc1ccc(S(=O)(=O)N2Cc3cc(NC(=O)[C@H](C)N)ccc3C[C@@H]2C(=O)NO)cc1"
  Tested On: "human stromelysin (MMP-3) (Homo sapiens, UniProt P08254)"
  IC50, µM: 0.03
- Compound: "Nc1ccc2c(c1)CN(S(=O)(=O)c1ccc(-c3ccc(F)cc3)cc1)[C@@H](C(=O)NO)C2"
  Tested On: "human stromelysin (MMP-3) (Homo sapiens, UniProt P08254)"
  IC50, µM: 0.02
- Compound: "CC(N)C(=O)Nc1ccc2c(c1)CN(S(=O)(=O)c1ccc(-c3ccc(Cl)cc3)cc1)[C@@H](C(=O)O)C2 (stereo partly shown)"
  Tested On: "human stromelysin (MMP-3) (Homo sapiens, UniProt P08254)"
  IC50, µM: 0.2
- Compound: "COc1ccc(S(=O)(=O)N2Cc3cc(NC(=O)OC(C)(C)C)ccc3C[C@@H]2C(=O)NO)cc1"
  Tested On: "human stromelysin (MMP-3) (Homo sapiens, UniProt P08254)"
  IC50, µM: 0.02

With those in mind, consider the next compound.
Value of measured IC50 for the entry "COc1ccc(S(=O)(=O)N2Cc3cc(N)ccc3C[C@@H]2C(=O)NO)cc1" : 0.01

====

# Lookup of reported pIC50 keyed by entry
- Tested On: human stromelysin (MMP-3) (Homo sapiens)
- Construct: catalytic domains of human stromelysin and of neutrophil collagenase
- Assay Summary: inhibition of the catalytic domain of human stromelysin (MMP-3), fluorogenic substrate
Recall that pIC50 is obtained by taking minus log10 of the concentration measured in molar.

- Smiles String: "Nc1ccc2c(c1)C[C@H](C(=O)O)N(S(=O)(=O)c1ccc(-c3ccc(F)cc3)cc1)C2"
  Value Measured: 6.70
- Smiles String: "Nc1ccc2c(c1)CN(S(=O)(=O)c1ccc(-c3ccc(F)cc3)cc1)[C@@H](C(=O)O)C2"
  Value Measured: 6.52
- Smiles String: "COc1ccc(S(=O)(=O)N2Cc3cc(NC(=O)[C@H](CC(=O)OC(C)(C)C)NC(=O)OCc4ccccc4)ccc3C[C@@H]2C(=O)NO)cc1"
  Value Measured: 6.40

Considering "CC(C)(C)OC(=O)Nc1ccc2c(c1)CN(S(=O)(=O)c1ccc(-c3ccc(F)cc3)cc1)[C@@H](C(=O)O)C2" , its pIC50 with human stromelysin (MMP-3) (Homo sapiens) was recorded as 5.70

The reported human stromelysin (MMP-3) (Homo sapiens) pIC50 of "C[C@H](NC(=O)OCc1ccccc1)C(=O)Nc1ccc2c(c1)CN(S(=O)(=O)c1ccc(-c3ccc(Cl)cc3)cc1)[C@@H](C(=O)O)C2" is 6.52

// provenance: patent US5962471A
